Overview of reported Rcp 3 hours from addition (%) across a group of compounds:
- assay protocol: Rcp of ^99mTc-HMPAO after addition of a single stabiliser, two step process (Example 1)
- Type: physicochemical
- details: additive added 2 minutes post-radiolabelling; amount as in table; n = 3 (*n = 1)
readout: Rcp 3 hours from addition (%)

> print(dat)
                                   compound                        readout  observed.measurement
1           O=C1O[C@H]([C@@H](O)CO)C(O)=C1O  Rcp 3 hours from addition (%)                 41* %
2                            O=C(O)CCC(=O)O  Rcp 3 hours from addition (%)                 14* %
3  O=C1O[C@H]([C@@H](O)CO)C([O-])=C1O.[Na+] [Sodium ascorbate]  Rcp 3 hours from addition (%)                 51* %
4                       O=P(O)(O)CP(=O)(O)O  Rcp 3 hours from addition (%)                 30* %
5  O=C(NCCO)c1cc(O)ccc1O [Gentisic acid ethanolamide]  Rcp 3 hours from addition (%)              29 ± 13%
